Molecular target: truncated form of PTP1B (corresponding to the first 321 amino acids) (Homo sapiens)
Construct: truncated form of PTP1B (corresponding to the first 321 amino acids)
Sequence (P18031 1-321): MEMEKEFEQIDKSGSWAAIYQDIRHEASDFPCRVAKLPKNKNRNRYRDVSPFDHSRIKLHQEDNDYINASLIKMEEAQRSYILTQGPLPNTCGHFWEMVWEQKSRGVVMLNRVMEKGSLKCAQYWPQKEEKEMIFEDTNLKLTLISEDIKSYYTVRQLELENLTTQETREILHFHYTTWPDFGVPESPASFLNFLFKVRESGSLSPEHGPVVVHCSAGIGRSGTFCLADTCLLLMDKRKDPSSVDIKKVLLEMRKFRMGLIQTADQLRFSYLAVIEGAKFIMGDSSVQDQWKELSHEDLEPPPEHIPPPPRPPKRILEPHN
Assay: Inhibition of classical PTP1B, p-nitrophenyl phosphate enzyme assay
Conditions: substrate p-nitrophenyl phosphate 0.16 to 10 mM; 100 mM sodium acetate pH 5.5; 25° C., 60 minutes; absorbance at 405 nm; read-out: PTP1B K1 values
observation-type: pKi
In plain terms, pKi is the concentration in mol/L turned into minus its base-10 logarithm.

Endpoint output: pKi of Nc1scc2c1c(=O)oc1ccc3ccccc3c12 [Example 3] . Value?
5.40

Endpoint output: pKi of CCSc1nn(-c2ccc(OC)cc2)c(=O)c2c(N)scc12 [Example 2] . Value?
5.70

FYI, the data here is from patent US6169087A.
